# assaySystem: T1, anthrax protective antigen, wild type PA83 (Bacillus anthracis, UniProt P13423 30-764)
# T1 construct: mature
# T1 sequence (P13423 30-764): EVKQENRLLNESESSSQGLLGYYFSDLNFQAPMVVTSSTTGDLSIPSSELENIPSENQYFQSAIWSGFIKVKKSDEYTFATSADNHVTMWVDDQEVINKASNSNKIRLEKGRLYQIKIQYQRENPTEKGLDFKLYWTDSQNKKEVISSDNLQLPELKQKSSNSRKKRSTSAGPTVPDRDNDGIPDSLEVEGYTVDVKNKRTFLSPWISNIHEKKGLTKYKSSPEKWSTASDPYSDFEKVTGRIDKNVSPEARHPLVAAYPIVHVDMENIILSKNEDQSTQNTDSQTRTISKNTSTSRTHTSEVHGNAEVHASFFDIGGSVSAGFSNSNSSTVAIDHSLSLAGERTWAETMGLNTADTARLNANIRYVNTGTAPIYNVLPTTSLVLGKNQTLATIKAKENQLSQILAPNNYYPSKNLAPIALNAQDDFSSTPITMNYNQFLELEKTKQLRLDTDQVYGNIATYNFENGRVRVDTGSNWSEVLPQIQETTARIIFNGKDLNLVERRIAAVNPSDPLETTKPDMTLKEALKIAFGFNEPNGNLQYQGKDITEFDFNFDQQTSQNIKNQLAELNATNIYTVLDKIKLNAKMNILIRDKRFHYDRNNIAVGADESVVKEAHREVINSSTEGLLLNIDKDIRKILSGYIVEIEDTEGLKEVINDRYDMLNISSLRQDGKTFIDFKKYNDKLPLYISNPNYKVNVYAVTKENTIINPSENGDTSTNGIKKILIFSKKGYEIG
# protocolNotes: SPR (ProteOn XPR36)
Reported pKd by item:
When answering, recall that pKd equals minus log10 of the concentration in mol/L, and write that number alone.

>>> numericresult("JIJ-A12 (VHH) VHH: QVQLVESGGGLVQPGGSLRLSCAASGIIFSIYTMGWYRQAPGKQRELVAAIPSGPSANATDSVGGRFTITRDNAENTVYLQMNDLKPEDTAVYYCNARRGPGIKNYWGQGTQVTVSS")
7.35

[in] Fill in the blank: the reported pKd of JIJ-E9 (VHH) VHH: QVQLVETGGLVQPGGSLRLSCAASRSTTATIYSMNWYRQAPGKQRELVAGMTSDGQTNYATSVKGRFTISRDNAKNTVYLLMNSLKLEDTAVYYCYVKPWRLQGWDYWGQGTQVTVSS is ____.
[out] 7.92
